# assay.explanation: Half life in rat brain at 10 mg/kg, po
# Assay type: ADME, organism-based
value.kind: half-life (min)
Kindly provide the numeric value in min only, without the unit symbol.

Enquiry: Annotate the compound CC(C)n1nc2c(c1-c1ccc(F)cc1)CCNCC2 with its measured half-life.
Return: 378

* * *

# assay.explanation: Oral bioavailability in rat
# Format: ADME, organism-based
# condition.notes: in vivo
value.kind: bioavailability (%)
Respond numerically; units are % and should not be typed.

Enquiry: Give a short answer stating reported bioavailability for CC(C)n1nc2c(c1-c1ccc(F)cc1)CCNCC2 .
Return: 100

* * *

Let's go through some recorded Ki values for 5-hydroxytryptamine receptor 7 (Rattus norvegicus, UniProt P32305) together.
Quick reminder: number only, in µM, skip the unit.

Below, each entry is followed by its recorded Ki result.
| compound.structure | Ki / µM |
| --- | --- |
| COc1ccc(-c2c3c(nn2C(C)C)CCNCC3)cc1 | 0.018 |
| CC(C)n1nc2c(c1-c1ccc(OC(F)(F)F)cc1)CCNCC2 | 5 |
| CNc1ccc(-c2c3c(nn2C(C)C)CCNCC3)cc1 | 0.04 |
| CC(C)n1nc2c(c1-c1ccc(Cl)c(Cl)c1)CCNCC2 | 4 |
| CC(C)n1nc2c(c1-c1ccccc1)CCNCC2 | 0.028 |

Enquiry: Give Ki for the following compound: c1ccc(-c2c3c(nn2-c2ccccc2)CCNCC3)cc1
Return: 0.15

* * *

# assay.explanation: Ratio of drug level in rat brain to plasma at 10 mg/kg, po
# Format: ADME, organism-based
# condition.notes: brain and plasma, read-out: BPR
value.kind: Kp

Enquiry: // Input: CC(C)n1nc2c(c1-c1ccc(F)cc1)CCNCC2 . Output its Kp only.
Return: > 1

* * *

# assay.explanation: Protein binding in rat plasma assessed as unbound fraction
# Format: ADME, cell-free
value.kind: fraction unbound
Reply briefly: the number, and no unit.

Enquiry: Provide fraction unbound value for the following compound: CC(C)n1nc2c(c1-c1ccc(F)cc1)CCNCC2
Return: 0.2

* * *

# target.or.system: 5-hydroxytryptamine receptor 2A (Homo sapiens)
# Sequence (P28223 whole entry): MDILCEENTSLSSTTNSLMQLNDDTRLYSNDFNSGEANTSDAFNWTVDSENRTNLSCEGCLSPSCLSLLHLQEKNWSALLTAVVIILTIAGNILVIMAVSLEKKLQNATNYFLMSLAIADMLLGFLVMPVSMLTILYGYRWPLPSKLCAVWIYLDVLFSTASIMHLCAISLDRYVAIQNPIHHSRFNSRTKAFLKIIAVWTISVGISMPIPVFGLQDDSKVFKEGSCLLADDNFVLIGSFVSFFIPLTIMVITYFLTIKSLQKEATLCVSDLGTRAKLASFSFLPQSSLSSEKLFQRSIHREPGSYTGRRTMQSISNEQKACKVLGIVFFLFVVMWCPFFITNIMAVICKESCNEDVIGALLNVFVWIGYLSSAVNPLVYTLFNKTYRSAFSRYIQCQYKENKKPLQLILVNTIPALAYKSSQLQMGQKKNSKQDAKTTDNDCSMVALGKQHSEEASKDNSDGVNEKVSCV
Ki values by entry

Here are 5 compounds together with their reported answers.
| compound | target.or.system | Ki |
| --- | --- | --- |
| Fc1ccc(-c2c3c(nn2C2CC2)CCNCC3)cc1 | 5-hydroxytryptamine receptor 2A (Homo sapiens) | 6 nM |
| Clc1ccc(-c2nn(Cc3ccccc3)c3c2CCNCC3)cc1 [JNJ-18038683 FREE BASE] | 5-hydroxytryptamine receptor 2A (Homo sapiens) | 100 nM |
| Fc1ccc(-c2c3c(nn2C2CCC2)CCNCC3)cc1 | 5-hydroxytryptamine receptor 2A (Homo sapiens) | 1 nM |
| Cc1ccc(-c2c3c(nn2C(C)C)CCNCC3)cc1 | 5-hydroxytryptamine receptor 2A (Homo sapiens) | 1 nM |
| CC(C)n1nc2c(c1-c1ccc(Cl)cc1Cl)CCNCC2 | 5-hydroxytryptamine receptor 2A (Homo sapiens) | 15 nM |

Enquiry: State, in one line, measured Ki of c1ccc(-c2c3c(nn2-c2ccccc2)CCNCC3)cc1
Return: 600 nM

Enquiry: Please list Ki recorded for the compound CC(C)n1nc2c(c1-c1ccc(F)cc1)CCNCC2
Return: 8 nM

Enquiry: State, in one line, measured Ki of CC(C)(C)n1nc2c(c1-c1ccccc1)CCNCC2
Return: 19 nM

Enquiry: Give Ki for CC(C)n1nc2c(c1-c1ccc(C(F)(F)F)cc1)CCNCC2
Return: 2 nM
